All values here come from DBAASP.

Tested on: Pseudomonas aeruginosa CMCCB 10104
Assay: ≥ marks a high value that may be exact or a test limit, other limits are often not marked, values filed in µg/mL are converted to µM
Can you tell me MIC for the items I'm about to list?

Task: Could you tell me which MIC is on file for `CC[C@H](C)[C@H](NC(=O)CNC(=O)[C@H](CS)NC(=O)[C@H](Cc1ccccc1)NC(=O)[C@H](CCCCN)NC(=O)[C@H](CCCN=C(N)N)NC(=O)[C@@H]1CCCN1C(=O)[C@H](CCCN=C(N)N)NC(=O)[C@H](CC(=O)O)NC(=O)[C@@H]1CCCN1C(=O)[C@H](C)N)C(=O)N[C@@H](CC(C)C)C(=O)NCC(=O)O` ?
Output: ≥ 140 µM

Task: Could you tell me which MIC is on file for `CC[C@H](C)[C@H](NC(=O)[C@H](CC(N)=O)NC(=O)[C@@H](NC(=O)[C@H](C)N)[C@@H](C)O)C(=O)N1CCC[C@H]1C(=O)N[C@@H](Cc1ccccc1)C(=O)N[C@@H](CCCCN)C(=O)N[C@H](C(=O)N[C@@H](Cc1cnc[nH]1)C(=O)N[C@@H](Cc1ccccc1)C(=O)N[C@@H](CCCN=C(N)N)C(=O)N[C@H]1CSSC[C@@H](C(=O)O)NC(=O)[C@H](Cc2ccccc2)NC(=O)[C@H](C)NC(=O)[C@H](C)NC(=O)[C@H](CCCCN)NC1=O)C(C)C` ?
Output: 24.1 µM

Task: Could you tell me which MIC is on file for `CSCC[C@H](NC(=O)[C@H](CCCCN)NC(=O)[C@@H](NC(=O)[C@H](CCC(=O)O)NC(=O)[C@H](CCCCN)NC(=O)[C@H](CCCCN)NC(=O)[C@H](CCCCN)NC(=O)[C@H](CCCCN)NC(=O)[C@H](CC(C)C)NC(=O)[C@H](CCSC)NC(=O)[C@@H](N)CCC(=O)O)C(C)C)C(=O)N[C@@H](CCC(=O)O)C(=O)N[C@@H](CCCN=C(N)N)C(=O)N[C@@H](CCCCN)C(=O)N[C@H](C(=O)O)[C@@H](C)O` ?
Output: ≥ 105 µM

Task: Could you tell me which MIC is on file for `CC[C@H](C)[C@H](NC(=O)[C@H](CC(N)=O)NC(=O)[C@H](Cc1ccccc1)NC(=O)[C@H](CCSC)NC(=O)[C@H](CC(N)=O)NC(=O)[C@@H](N)CCC(=O)O)C(=O)N[C@@H](CCCCN)C(=O)N[C@@H](CO)C(=O)N[C@@H](CO)C(=O)N[C@H](C(=O)N[C@@H](CCC(=O)O)C(=O)N[C@@H](CO)C(=O)N[C@@H](CC(=O)O)C(=O)N[C@@H](CO)C(=O)N[C@@H](Cc1ccccc1)C(=O)N[C@@H](Cc1c[nH]c2ccccc12)C(=O)NCC(=O)O)C(C)C` ?
Output: ≥ 101 µM

* * *

MEASURED METRIC: MIC (µM)
I only need the number, in µM, no unit after it.

Task: # get_value(readout= MIC, system= Escherichia coli ATCC 25922) for `NC(=O)[C@H](Cc1c[nH]c2ccccc12)NC(=O)[C@H](Cc1c[nH]c2ccccc12)NC(=O)[C@H](Cc1c[nH]c2ccccc12)NC(=O)[C@@H]1CCCN1C(=O)[C@H](CCCN=C(N)N)NC(=O)[C@@H]1CCCN1C(=O)[C@H](CCCN=C(N)N)NC(=O)[C@@H]1CCCN1C(=O)[C@H](CCCN=C(N)N)NC(=O)[C@@H]1CCCN1C(=O)[C@H](CCCN=C(N)N)NC(=O)[C@@H](N)CCCN=C(N)N`
Output: 40
